Where these numbers come from: patent US20190315814A1

MIC VRE ATCC 700221 values recorded for VRE Enterococcus faecium
Answers are plain numbers, in µg/mL.

C=C1NC(=O)[C@H](Cc2c[nH]c3ccccc23)NC(=O)[C@H](NC(=O)[C@H](CCCCN)NC(=O)[C@@H](N)[C@@H](C)CC)CSC[C@@H](C(=O)N[C@H]2C(=O)N3CCC[C@H]3C(=O)NCC(=O)N[C@H](C(=O)N[C@@H](C)C(=O)N[C@@H](CC(N)=O)C(=O)NC(=CC)C(=O)N[C@@H](C)C(=O)N[C@@H]3CSC[C@@H]4NC(=O)[C@H](Cc5ccc(O)cc5)NC(=O)[C@@H](CS/C=C\NC4=O)NC(=O)[C@H](CC(N)=O)NC(=O)[C@H](Cc4ccccc4)NC3=O)CS[C@H]2C)NC(=O)[C@H](CC(C)C)NC1=O [F1I R13N G15A]; 32

Now take the following molecule into account.
(Q) Entry C=C1NC(=O)[C@H](Cc2c[nH]c3ccccc23)NC(=O)[C@H](NC(=O)[C@H](CCCCN)NC(=O)[C@@H](N)CC(C)C)CSC[C@@H](C(=O)N[C@H]2C(=O)N3CCC[C@H]3C(=O)NCC(=O)N[C@H](C(=O)N[C@@H](C)C(=O)N[C@@H](CC(N)=O)C(=O)NC(=CC)C(=O)NCC(=O)N[C@@H]3CSC[C@@H]4NC(=O)[C@H](Cc5ccc(O)cc5)NC(=O)[C@@H](CS/C=C\NC4=O)NC(=O)[C@H](CC(N)=O)NC(=O)[C@H](Cc4ccccc4)NC3=O)CS[C@H]2C)NC(=O)[C@H](CC(C)C)NC1=O [F1L R13N] : reported MIC VRE ATCC 700221 = ?
(A) 16

---

Measured MIC to H. Pylori without EDTA (Heliobacter pylori)

C=C1NC(=O)[C@H](Cc2c[nH]c3ccccc23)NC(=O)[C@H](NC(=O)[C@H](CCCCN)NC(=O)[C@@H](N)CC(C)C)CSC[C@@H](C(=O)N[C@H]2C(=O)N3CCC[C@H]3C(=O)NCC(=O)N[C@H](C(=O)N[C@@H](C)C(=O)N[C@@H](CC(N)=O)C(=O)NC(=CC)C(=O)NCC(=O)N[C@@H]3CSC[C@@H]4NC(=O)[C@H](Cc5ccc(O)cc5)NC(=O)[C@@H](CS/C=C\NC4=O)NC(=O)[C@H](CC(N)=O)NC(=O)[C@H](Cc4ccccc4)NC3=O)CS[C@H]2C)NC(=O)[C@H](CC(C)C)NC1=O [F1L R13N]; 8 µg/mL

For each of the molecules below, note its MIC to H. Pylori without EDTA.
1. C=C1NC(=O)[C@H](CCSC)NC(=O)[C@H](NC(=O)[C@H](CCCCN)NC(=O)[C@@H](N)[C@@H](C)CC)CSC[C@@H](C(=O)N[C@H]2C(=O)N3CCC[C@H]3C(=O)NCC(=O)N[C@H](C(=O)N[C@@H](C)C(=O)N[C@@H](C)C(=O)NC(=CC)C(=O)NCC(=O)N[C@@H]3CSC[C@@H]4NC(=O)[C@H](Cc5ccc(O)cc5)NC(=O)[C@@H](CS/C=C\NC4=O)NC(=O)[C@H](CC(N)=O)NC(=O)[C@H](Cc4ccccc4)NC3=O)CS[C@H]2C)NC(=O)[C@H](CC(C)C)NC1=O [F1I W4M R13A]
2. C=C1NC(=O)[C@H](Cc2c[nH]c3ccccc23)NC(=O)[C@H](NC(=O)[C@H](CCCCN)NC(=O)[C@@H](N)C(C)C)CSC[C@@H](C(=O)N[C@H]2C(=O)N3CCC[C@H]3C(=O)NCC(=O)N[C@H](C(=O)N[C@@H](C)C(=O)N[C@@H](CC(N)=O)C(=O)N/C(=C\C)C(=O)NCC(=O)N[C@@H]3CSC[C@@H]4NC(=O)[C@H](Cc5ccc(O)cc5)NC(=O)[C@@H](CS/C=C\NC4=O)NC(=O)[C@H](CC(N)=O)NC(=O)[C@H](Cc4ccccc4)NC3=O)CS[C@H]2C)NC(=O)[C@H](CC(C)C)NC1=O [F1V R13N]

(A)
64 µg/mL
8 µg/mL
